TESTED_ON: T1, monomeric monkey CD48 expressed with a tag consisting of 2 myc and one 6-His epitopes (monkey)
T1 construct: also called mfCD48-mmH; Monomeric monkey CD48-mmH
T1 chain: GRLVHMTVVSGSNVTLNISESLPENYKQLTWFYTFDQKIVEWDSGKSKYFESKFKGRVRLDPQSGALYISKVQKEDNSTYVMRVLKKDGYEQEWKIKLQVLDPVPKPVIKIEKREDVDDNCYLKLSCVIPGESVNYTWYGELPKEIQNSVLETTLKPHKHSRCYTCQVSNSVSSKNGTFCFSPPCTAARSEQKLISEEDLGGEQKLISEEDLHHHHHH
TEST_NAME: competition ELISA; blocks mfCD48-mmH binding to coated h2B4-mFc
ENDPOINT_NAME: IC50 (pM)
Numbers only, in pM.

Please review the following examples before continuing.
# BINDER, IC50 / pM
measured = [
    ("H4H1781P (antibody, human IgG4, V domains shown, Human IgG4 Fc (H4H)) VH: QVQLVESGGGVVQPGRSLRLSCAASGFTFSNYGMHWVRQAPGKGLEWVAVIWYDDSNKNYADSVKGRFTISRDNSKNTLYLQMNSLRVEDTAVYYCARDRWTYSHFFEYWGQGTLVTVSS VL: DIQMTQSPSSVSASVGDRVTITCRASQGISSWLAWYQQKPGKAPNLLIYAASSLQSGVPSRFGGSGSGTDFSLTISGLQPEDFATYYCQQANSFPRTFGQGTKVEIK", 8.1),
    ("H2M1763N (antibody, mouse IgG2, V domains shown, Human variable domains, mouse IgG2 Fc (H2M)) VH: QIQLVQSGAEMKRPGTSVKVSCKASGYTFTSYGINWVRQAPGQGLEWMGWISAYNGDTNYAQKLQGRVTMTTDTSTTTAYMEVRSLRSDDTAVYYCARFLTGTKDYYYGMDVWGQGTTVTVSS VL: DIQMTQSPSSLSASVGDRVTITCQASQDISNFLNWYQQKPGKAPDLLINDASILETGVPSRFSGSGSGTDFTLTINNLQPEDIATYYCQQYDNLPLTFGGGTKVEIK", 2.3),
    ("H2M1707N (antibody, V domains shown, Human variable domains, mouse IgG2 Fc (H2M)) VH: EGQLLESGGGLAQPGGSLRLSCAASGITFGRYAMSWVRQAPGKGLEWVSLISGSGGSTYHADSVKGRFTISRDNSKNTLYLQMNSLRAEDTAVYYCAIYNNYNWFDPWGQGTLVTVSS VL: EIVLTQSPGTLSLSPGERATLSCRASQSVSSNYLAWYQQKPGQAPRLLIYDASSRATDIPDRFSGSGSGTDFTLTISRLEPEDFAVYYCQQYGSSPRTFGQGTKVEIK", 4.9),
    ("H2M1710N (antibody, mouse IgG2, V domains shown, Human variable domains, mouse IgG2 Fc (H2M)) VH: QVQLVQSGADMKKPGASVRVSCKASGYTFTDYFIHWVRQAPGQGPEWMGWINPDSGATNYAQQFQGRVTMTRDTSISATYMEMSRLRSDDTAVFYCARDKDGSGWYLDDWGQGTLVTVSS VL: EIVLTQSPATLSLSPGERATLSCRASQSVNIYLAWYQQKPGQAPRLLIYDASNRASGIPARFSGSGSGTDFTLTISSLEPEDFAVYYCQQRSNWPPSITFGQGTRLEIK", 260),
]

API: the following record is the query input.
Looking for the measured IC50 of H4H1774P (antibody, human IgG4, V domains shown, Human IgG4 Fc (H4H)) VH: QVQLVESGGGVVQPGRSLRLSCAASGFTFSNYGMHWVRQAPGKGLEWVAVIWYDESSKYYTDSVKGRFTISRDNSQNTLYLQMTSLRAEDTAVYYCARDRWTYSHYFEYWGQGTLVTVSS VL: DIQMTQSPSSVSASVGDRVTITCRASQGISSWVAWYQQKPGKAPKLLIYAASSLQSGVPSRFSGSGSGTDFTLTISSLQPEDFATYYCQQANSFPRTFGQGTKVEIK , can you help? 16
